Target: Nb6E-biotin (biotin at the C terminus (sortagging))
Sequence (VHH, as listed by the source): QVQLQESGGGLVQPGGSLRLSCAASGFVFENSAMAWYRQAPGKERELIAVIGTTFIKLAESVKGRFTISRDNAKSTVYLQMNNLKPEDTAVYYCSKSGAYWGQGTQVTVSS
Assay: SPR
pKd reference
Just the number, please; pKd means minus log10 of the concentration in mol/L.

Binder: QADQEAKELARQIS [6E-WT peptide]
pKd: 6.80

Now consider a different binder.
Lab note: QADQEAKEMARQIS [6E-M9] gave pKd of 7.11

Origin of the recorded values: paper PMC12212259
